Would you mind telling me the reported MIC of each entry?
# Test system: Staphylococcus aureus
# assaySummary: Antibacterial activity against erythromycin-resistant Staphylococcus aureus PU-19 expressing erm(A) gene by broth microdilution method
# Assay type: functional
Numbers only, in µg/mL.

CC[C@H]1OC(=O)[C@H](C)C(=O)[C@H](C)[C@@H](O[C@H]2O[C@H](C)C[C@H](N(C)C)[C@H]2O)[C@](C)(OC)C[C@@H](C)/C(=N\OC/C=C/c2cncnc2)[C@H](C)[C@@H]2OC(=O)O[C@]12C    256

Hi there! I need MIC for each item below, if you can.
1. CC[C@H]1OC(=O)[C@H](C)C(=O)[C@H](C)[C@@H](O[C@H]2O[C@H](C)C[C@H](N(C)C)[C@H]2O)[C@](C)(OC)C[C@@H](C)/C(=N\OC/C=C/c2cncc3ccccc23)[C@H](C)[C@@H]2OC(=O)O[C@]12C
2. CC[C@H]1OC(=O)[C@H](C)C(=O)[C@H](C)[C@@H](O[C@H]2O[C@H](C)C[C@H](N(C)C)[C@H]2O)[C@](C)(OC)C[C@@H](C)/C(=N\OC/C=C/c2ccc(-n3ccnc3)cc2)[C@H](C)[C@@H]2OC(=O)O[C@]12C
3. CC[C@H]1OC(=O)[C@H](C)C(=O)[C@H](C)[C@@H](O[C@H]2O[C@H](C)C[C@H](N(C)C)[C@H]2O)[C@](C)(OC)C[C@@H](C)/C(=N\OC/C=C/c2cccnc2)[C@H](C)[C@@H]2OC(=O)O[C@]12C
4. CC[C@H]1OC(=O)[C@H](C)C(=O)[C@H](C)[C@@H](O[C@H]2O[C@H](C)C[C@H](N(C)C)[C@H]2O)[C@](C)(OC)C[C@@H](C)/C(=N\OC/C=C/c2cnc3ccccc3c2)[C@H](C)[C@@H]2OC(=O)O[C@]12C
5. CC[C@H]1OC(=O)[C@H](C)C(=O)[C@H](C)[C@@H](O[C@H]2O[C@H](C)C[C@H](N(C)C)[C@H]2O)[C@](C)(OC)C[C@@H](C)/C(=N\OC/C=C/c2ccc3ncccc3c2)[C@H](C)[C@@H]2OC(=O)O[C@]12C

Reply:
256
64
256
64
64
